Test: physchem
Conditions: aqueous
Non-standard residues stand in square brackets, D forms with d. Residues, ends and D or L forms follow the SMILES beside them. NMeY = CN[C@@H](Cc1ccc(O)cc1)C(=O)O; dNMeF = CN[C@H](Cc1ccccc1)C(=O)O; Sar = CNCC(=O)O
Quantity Kind: solubility

Given the entry CC[C@H](C)[C@@H]1NC(=O)[C@H](Cc2ccc(O)cc2)N(C)C(=O)[C@H](Cc2ccccc2)NC(=O)CN(C)C(=O)[C@@H]2CCCN2C(=O)[C@@H](Cc2ccccc2)N(C)C(=O)[C@H](CC(C)C)NC1=O [Compound 1, cordyheptapeptide A] (cyclo(F[NMeY]IL[dNMeF]P[Sar])) , report its measured solubility.
3.9 µM

Origin of values: paper PMC8545353
